# Tested on: Plasmodium berghei
# Test details: Screen against P. berghei liver stage (PbLuc), transformed with Luciferase, at 10uM
# Type: functional, HepG2
# Run parameters: tested at 10 uM
Among all 69,000 compounds or so, about 8,600 (12%) showed an effect of 50% or more. This excerpt belongs to a sample that is enriched for strong results.
Binary classification by INHIBITION, with 20% as an inclusive lower bound for satisfied; all other cases are not satisfied.

(Q) Hi, just wondering whether COc1ccc(N2CCN(C(=O)COc3c(C)occc3=O)CC2)cc1 shows INHIBITION of 20% or higher.
(A) not satisfied

(Q) Check this molecule for INHIBITION at or above 20%: Cc1nnc(N2CCOC(C)C2)c(C#N)c1C (centres undefined)
(A) not satisfied

(Q) Is the recorded value of INHIBITION equal to or greater than 20% for this molecule? c1csc(CN2CCc3onc(Cn4cccc4)c3C2)c1
(A) not satisfied

(Q) Check this molecule for INHIBITION at or above 20%: COc1ccccc1-n1cc(C(=O)NCCn2nc(C)nc2C)cn1
(A) satisfied

(Q) For this molecule, is measured INHIBITION 20% or higher? Cc1noc(C)c1CN1CC[C@H]2OCC[C@@]2(C(=O)N2CCCO2)C1
(A) satisfied

(Q) Dear colleague, could you confirm whether COc1ccc(CCN(C)C2CCCN(Cc3noc(C)n3)C2)cc1 (centres undefined) has INHIBITION at or above 20%?
(A) not satisfied

(Q) Does the reported INHIBITION for Cc1ccc(CNC(=O)N2CCc3ccccc3C2CO)s1 (centres undefined) fall at or above the 20% mark?
(A) satisfied

(Q) Threshold query (INHIBITION >= 20%) on CCc1c(C)n(CC(=O)OC)c2nc3ccccc3n2c1=O
(A) not satisfied

(Q) Could you please find out whether Cc1cc(C2CCCN2C(=O)CN(C)Cc2ccccc2)no1 (centres undefined) has INHIBITION that meets 20% or exceeds it?
(A) satisfied

(Q) Hi, just wondering whether CC(C)c1nnc2n1CCN(Cc1ccc3c(c1)OCCO3)C2 shows INHIBITION of 20% or higher.
(A) not satisfied

(Q) Hello, I need to know if CC(CNC(=O)N1CCNC(=O)CC1)Cc1cccs1 (centres undefined) has measured INHIBITION not below 20%. Thanks!
(A) satisfied

(Q) Threshold query (INHIBITION >= 20%) on COc1nn(C)c2c1CCCN(C(=O)c1ccc(C)c(F)c1)C2
(A) not satisfied

(Q) Please indicate if the recorded INHIBITION for Cc1cc(C)c(CNC(=O)N2CCCC2c2cc(C)on2)c(=O)[nH]1 (centres undefined) meets or exceeds 20%.
(A) satisfied

(Q) Is reported INHIBITION greater than or equal to 20% here: CCCOc1ccc(C(=O)N2CCN3CCNC(=O)C3C2)cc1Cl (centres undefined)
(A) not satisfied

(Q) Determine whether measured INHIBITION meets or exceeds 20% for O=c1[nH]c2ncccc2n1C1CCNCC1
(A) not satisfied

(Q) Is reported INHIBITION greater than or equal to 20% here: Cc1ccc([C@@H]2CN(S(=O)(=O)Cc3ccccc3)C[C@H]2N(C)C)cc1
(A) satisfied

(Q) Textbook exercise: given the entry O=C(c1ccccn1)N1CCC(Oc2cccnc2)CC1 , state whether its INHIBITION is greater than or equal to 20%.
(A) not satisfied

(Q) Record Nc1nnc(CCCNC(=O)c2ccc(C3CCCNC3)cc2)s1 (centres undefined) ; criterion: INHIBITION no lower than 20%. Met?
(A) satisfied

(Q) Given O=C([C@H]1CCCO1)N1CCC2(CCCN(CCOc3ccccc3)C2)C1 (some centres undefined) , state whether its INHIBITION is at least 20%.
(A) not satisfied

(Q) Is INHIBITION at least 20%? Consider Cc1nc(-c2ccsc2)ccc1C(=O)NCC(C)N1CCOCC1 (centres undefined)
(A) not satisfied

(Q) # bool: INHIBITION of Cc1ccc([C@@H]2CN(S(=O)(=O)c3ccccc3)C[C@H]2N(C)C)cc1 >= 20%
(A) not satisfied

(Q) Is it the case that CN(C)CC1CN(Cc2ccsc2)Cc2nccn2C1 (centres undefined) has INHIBITION reaching or exceeding 20%?
(A) satisfied

(Q) For this molecule, is measured INHIBITION 20% or higher? Cc1c(C(=O)N2CCCC(C(=O)c3nccn3C)C2)c[nH]c(=O)c1C#N (centres undefined)
(A) satisfied

(Q) For this molecule, is measured INHIBITION 20% or higher? Cc1ccc(-c2nc(C(=O)N3CCCC(C(N)=O)C3)cs2)c(C)c1 (centres undefined)
(A) not satisfied

(Q) Decide: INHIBITION of CN(C)c1ncc(I)c(C2CCCN2C)n1 (centres undefined) >= 20%?
(A) not satisfied

(Q) Tell me whether INHIBITION is at least 20% here: COc1c(CNCc2ccc(Cn3ccnc3)cc2)c(C)nn1C
(A) not satisfied

(Q) Hi, just wondering whether CN(Cc1csc(-c2ccccc2)n1)Cc1ncccc1C(=O)O shows INHIBITION of 20% or higher.
(A) satisfied

(Q) Hi, just wondering whether Cc1occc1C(=O)N1CCc2c(COCC3CC3)cncc2C1 shows INHIBITION of 20% or higher.
(A) satisfied

(Q) Given Cc1cc(NS(=O)(=O)c2ccccc2F)ccc1-n1cccc1C(=O)O , state whether its INHIBITION is at least 20%.
(A) not satisfied

(Q) Can CCCOc1c(Cl)cc(C(=O)N2CCOC23CCN(C)CC3)cc1Cl be said to have INHIBITION at or above 20%?
(A) satisfied

(Q) API: above_or_equal(metric=INHIBITION, cutoff=20%) for item N[C@@H]1CC[C@@H](Nc2nccc(CCC(F)(F)F)n2)C1
(A) not satisfied

(Q) Record CC(NC(=O)NCC1(O)CCC1)c1ccc(OCC2CC2)c(F)c1 (centres undefined) ; criterion: INHIBITION no lower than 20%. Met?
(A) not satisfied

(Q) Please check the record COc1cc(C)nc(N2CCN(C(=O)COCC3CC3)CC2)n1 and state if its INHIBITION is at or above 20%.
(A) satisfied

(Q) Is INHIBITION at least 20%? Consider Cc1nc(N2CCCC2)ncc1-c1cc(O)nc(NCC2CCCO2)n1 (centres undefined)
(A) not satisfied

(Q) Does the reported INHIBITION for CC(C)c1nnc2n1CCN(Cc1cc(Cl)c3c(c1)OCO3)C2 fall at or above the 20% mark?
(A) satisfied

(Q) Is reported INHIBITION greater than or equal to 20% here: Cc1nc(CN2C[C@@H]3CN(C(=O)c4cccn4C)C[C@@H]3C2=O)cs1
(A) satisfied

(Q) Is the recorded value of INHIBITION equal to or greater than 20% for this molecule? FC(F)(F)CCc1ccnc(NC2CCC(n3cnnc3)CC2)n1 (centres undefined)
(A) satisfied

(Q) Could you verify whether the entry Cn1cc(C2COC3(CCN(C(=O)c4cnccn4)CC3)C2)cn1 (centres undefined) shows INHIBITION of no less than 20%?
(A) satisfied

(Q) Is INHIBITION at least 20%? Consider Cc1ccn(CC(=O)NCCCOc2ccccc2F)c(=O)c1
(A) not satisfied

(Q) Check the entry O=C(CSCc1ccccn1)N(Cc1ccsc1)C1CC1 : does INHIBITION equal or exceed 20%?
(A) satisfied

(Q) I'd appreciate it if you could say whether COCCCNC(=O)CN(C)C(=O)CN(C)c1ccc(C#N)cn1 has INHIBITION at least equal to 20%.
(A) not satisfied

(Q) Does the reported INHIBITION for CC(C)CCn1cc(C(C(=O)O)N2CCSCC2)cn1 (centres undefined) fall at or above the 20% mark?
(A) not satisfied

(Q) Identify whether the reported INHIBITION of the following molecule is 20% or greater: Cn1c2c(ccc1=O)CCN(Cc1ccoc1)CC2
(A) not satisfied

(Q) Reported INHIBITION reaches at least 20% for CCc1nccn1-c1cncc(C2CCCN2CC(=O)N2CCCC2)n1 (centres undefined) ?
(A) not satisfied

Measured values drawn from ChEMBL document CHEMBL4513216 for this set.
